- MEASUREMENT_TARGET: recombinant homotrimeric HA, A/Japan/305/57 H2N2 (Influenza A virus A/Japan/305/57 (H2N2))
- PROTOCOL_DETAILS: trimeric HA microarray, transfection set 2
- MEASUREMENT_CONDITIONS: remark: other sources report otherwise
READOUT_TYPE: Trimeric HA Binding RLU (RLU)
The figure you give is taken to be in RLU; do not add the unit.

Could you tell me which Trimeric HA Binding RLU is on file for TCN-522 (3212_I12) (antibody, V domains shown) VH: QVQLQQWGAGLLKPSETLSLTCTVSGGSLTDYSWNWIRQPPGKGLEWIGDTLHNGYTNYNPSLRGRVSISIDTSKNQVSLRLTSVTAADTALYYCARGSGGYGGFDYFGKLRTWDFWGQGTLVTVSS VL: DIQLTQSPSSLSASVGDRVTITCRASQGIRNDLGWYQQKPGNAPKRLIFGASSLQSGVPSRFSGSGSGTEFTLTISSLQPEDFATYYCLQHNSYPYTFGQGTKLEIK ? 11900
